Study System: RBM12B
Protocol: pooled miR-30 sensor sort-seq; sequence = guide strand; further: reference of the scale not given here
Condition Context: shRNA
Provide the recorded sensor-assay potency score (higher = more potent) for the entries that follow.
Hey, just send me the number, nothing else.

RBM12B data for TAATTGAAGAGCCATATCCAGA ; its sensor-assay potency score (higher = more potent): -1.22

RBM12B data for TAAGTCTTAATAACACCTCTGT ; its sensor-assay potency score (higher = more potent): 0.203

RBM12B data for TATCTCTCTCTAGTGACCCTGA ; its sensor-assay potency score (higher = more potent): 0.0397

RBM12B data for TTTTTGTGAAACATGTCCGGGC ; its sensor-assay potency score (higher = more potent): 0.0214

RBM12B data for TAGTCTTCTGCATTTCTGCCTT ; its sensor-assay potency score (higher = more potent): -0.412

RBM12B data for TAATAGGAGTTACTCTACCTGA ; its sensor-assay potency score (higher = more potent): -0.42

RBM12B data for ATTTTTGTGAAACATGTCCGGG ; its sensor-assay potency score (higher = more potent): -0.845

---

Provide the recorded sensor-assay potency score (higher = more potent) for the entries that follow.
Study System: FYTTD1
Protocol: pooled miR-30 sensor sort-seq; sequence = guide strand
Condition Context: shRNA
Hey, just send me the number, nothing else.

The sequence listed as TTGTATGTGAGAGTGGCTCTTT has a reported sensor-assay potency score (higher = more potent) of -0.0403

The sequence listed as TGCTACTACATCGTCTAGCAGT has a reported sensor-assay potency score (higher = more potent) of -0.935

The sequence listed as TTAAAAATGAAGGTACAGCAGT has a reported sensor-assay potency score (higher = more potent) of -0.441

The sequence listed as TTTAATTTATTTCCACTCCTGG has a reported sensor-assay potency score (higher = more potent) of -0.341

The sequence listed as TTCTGTATTCAACTGGGCCTGC has a reported sensor-assay potency score (higher = more potent) of -0.211

The sequence listed as TAGTCTTGGAAAATTCTGCTTC has a reported sensor-assay potency score (higher = more potent) of 0.266

The sequence listed as TATTCTTGTCACTTAGAGGTGG has a reported sensor-assay potency score (higher = more potent) of 0.0654

The sequence listed as TAGGTCTCTTGAGAACTGCTAC has a reported sensor-assay potency score (higher = more potent) of -0.309

The sequence listed as TTCTCTTTGCTACTACATCGTC has a reported sensor-assay potency score (higher = more potent) of -0.513

---

Study System: INVS
Protocol: pooled miR-30 sensor sort-seq; sequence = guide strand
Condition Context: shRNA
Readout Kind: sensor-assay potency score (higher = more potent)
Hey, just send me the number, nothing else.

The sequence listed as TAAGACGTTATATTGCAGCTTT has a reported sensor-assay potency score (higher = more potent) of 0.127

The sequence listed as TTTTAAAAACACTTTAACCGTT has a reported sensor-assay potency score (higher = more potent) of -0.842

The sequence listed as TTTAAAAACACTTTAACCGTTT has a reported sensor-assay potency score (higher = more potent) of -0.562

The sequence listed as TACTTGAGCATTATTTTCCAGT has a reported sensor-assay potency score (higher = more potent) of -0.382

The sequence listed as TTATTTTCTATTAATATCTGGC has a reported sensor-assay potency score (higher = more potent) of 0.295

The sequence listed as TTGGTCAACTAGATCTACCCTT has a reported sensor-assay potency score (higher = more potent) of 0.547

The sequence listed as TAGAAGAGAATGTCCATCTTGG has a reported sensor-assay potency score (higher = more potent) of 0.67

The sequence listed as TTAATATCTGGCAAACATCAGC has a reported sensor-assay potency score (higher = more potent) of -0.861

---

Study System: C17orf71
Protocol: pooled miR-30 sensor sort-seq; sequence = guide strand
Condition Context: shRNA
Label scheme for sensor-assay potency score (higher = more potent): L = under -0.7, M = from -0.7 up to 0.1, H = 0.1 and over

Which of the defined bands does the recorded sensor-assay potency score (higher = more potent) of TTCCACAACACTTTTCTTCCAG sit within?
H

Which of the defined bands does the recorded sensor-assay potency score (higher = more potent) of TTAGCTTCCAGTCTTTGCCAAC sit within?
L

Which of the defined bands does the recorded sensor-assay potency score (higher = more potent) of TTTAAGTTTATCAGCATCCGAA sit within?
M

Which of the defined bands does the recorded sensor-assay potency score (higher = more potent) of TATTGTGATATAGCACAGGCGG sit within?
L

Which of the defined bands does the recorded sensor-assay potency score (higher = more potent) of TTTGCCAACTGGACAATCCTTA sit within?
H

Which of the defined bands does the recorded sensor-assay potency score (higher = more potent) of TACTTGACCATGAACTTCTGGA sit within?
H

Which of the defined bands does the recorded sensor-assay potency score (higher = more potent) of TTTCTTGCTTAGAACTAGCTCC sit within?
H

Which of the defined bands does the recorded sensor-assay potency score (higher = more potent) of TTGTGTCTAAGTCTCCTTCATC sit within?
L

Which of the defined bands does the recorded sensor-assay potency score (higher = more potent) of TTCATCTTCAGCTCTAGTCCTG sit within?
M

---

Study System: P4HB
Protocol: pooled miR-30 sensor sort-seq; sequence = guide strand
Condition Context: shRNA
Provide the recorded sensor-assay potency score (higher = more potent) for the entries that follow.
Hey, just send me the number, nothing else.

The sequence listed as TTGGAGAACACGTCACTGTTGG has a reported sensor-assay potency score (higher = more potent) of 0.0264

The sequence listed as TTTGATAAAGTCCAGCAGGTTC has a reported sensor-assay potency score (higher = more potent) of -0.96

The sequence listed as TATTTGGAGAACACGTCACTGT has a reported sensor-assay potency score (higher = more potent) of -0.00902

The sequence listed as TTCCTGAAGAACTTGATGGTGG has a reported sensor-assay potency score (higher = more potent) of 0.134

The sequence listed as TTTCTTAAAACCATCCAGCGTG has a reported sensor-assay potency score (higher = more potent) of -0.457

The sequence listed as TTGTAATCAATGACCGTCCTGT has a reported sensor-assay potency score (higher = more potent) of 0.492

The sequence listed as TTCACCTCCAAAAATCTTCGGG has a reported sensor-assay potency score (higher = more potent) of 0.109

The sequence listed as TTGGCAGTCGAGTCCATCTTGG has a reported sensor-assay potency score (higher = more potent) of -1.06

---

Study System: EBP
Protocol: pooled miR-30 sensor sort-seq; sequence = guide strand
Condition Context: shRNA
Provide the recorded sensor-assay potency score (higher = more potent) for the entries that follow.
Hey, just send me the number, nothing else.

The sequence listed as ACAAGCTGTAGAATGAAGCGGA has a reported sensor-assay potency score (higher = more potent) of 0.326

The sequence listed as TTGGCATCCAGCGTGCTCTGGG has a reported sensor-assay potency score (higher = more potent) of -0.0185

The sequence listed as TCGTAGTAGAGAACGAACCAGC has a reported sensor-assay potency score (higher = more potent) of -1.05

The sequence listed as TAAAACCAGAAGTAGAGAGGGT has a reported sensor-assay potency score (higher = more potent) of 0.087

The sequence listed as TTCGTAGTAGAGAACGAACCAG has a reported sensor-assay potency score (higher = more potent) of -0.577

The sequence listed as TTGGTCTCCAAGCAGGTCTTCG has a reported sensor-assay potency score (higher = more potent) of -0.868

---

Study System: SPINK6
Protocol: pooled miR-30 sensor sort-seq; sequence = guide strand
Condition Context: shRNA
Readout Kind: sensor-assay potency score (higher = more potent)
Hey, just send me the number, nothing else.

The sequence listed as ACAGTCAACCTGTCCTCCCTGA has a reported sensor-assay potency score (higher = more potent) of -0.55

The sequence listed as TTTATTGCCATATGTCTGGCCA has a reported sensor-assay potency score (higher = more potent) of -0.38

The sequence listed as GAACTCACCACAGTCAACCTGT has a reported sensor-assay potency score (higher = more potent) of -0.413

The sequence listed as TAGACATACATTGAACTCCTCA has a reported sensor-assay potency score (higher = more potent) of -0.369

The sequence listed as TTAGGCTAATCTTTCCACCACT has a reported sensor-assay potency score (higher = more potent) of -0.87

---

Study System: CBL
Protocol: pooled miR-30 sensor sort-seq; sequence = guide strand
Condition Context: shRNA
Classify by measured sensor-assay potency score (higher = more potent): yes if it is equal to or exceeds -0.7, no if it is smaller.

Would you say ATACGTACAGCTATCAATCTGC shows sensor-assay potency score (higher = more potent) at minimum -0.7?
yes

Would you say TTTGGGTTCTGACACAACCGCA shows sensor-assay potency score (higher = more potent) at minimum -0.7?
no

Would you say TACAGCTATCAATCTGCTGGTC shows sensor-assay potency score (higher = more potent) at minimum -0.7?
yes

Would you say TATCTTGACAAGATAGTACGGA shows sensor-assay potency score (higher = more potent) at minimum -0.7?
yes

Would you say TTATACATTGCTTCATACGTAC shows sensor-assay potency score (higher = more potent) at minimum -0.7?
yes

Would you say TGTTGTAGGATCACCATCCAGA shows sensor-assay potency score (higher = more potent) at minimum -0.7?
yes

Would you say TTTGTGAATGAATTTCTGGAGC shows sensor-assay potency score (higher = more potent) at minimum -0.7?
yes

Would you say TTGAGGGAACACATACTCGCTG shows sensor-assay potency score (higher = more potent) at minimum -0.7?
yes

Would you say TATCTGAGAGAGTTCGGCGGGC shows sensor-assay potency score (higher = more potent) at minimum -0.7?
yes

Would you say TTTCTTCATCAAATTCTCCATA shows sensor-assay potency score (higher = more potent) at minimum -0.7?
no

Would you say TGAGGGAACACATACTCGCTGC shows sensor-assay potency score (higher = more potent) at minimum -0.7?
yes

Would you say TTGCTTAGTTTTCTTCATCAAA shows sensor-assay potency score (higher = more potent) at minimum -0.7?
no

Would you say TCACCATCCAGAGACAACCAGC shows sensor-assay potency score (higher = more potent) at minimum -0.7?
no

Would you say TTTATTGTGAGGGATTGTCTGG shows sensor-assay potency score (higher = more potent) at minimum -0.7?
yes
